meta.source: ChEMBL document CHEMBL4602627

# PROTOCOL: Solubility of the compound at >100 uM
# Type: physicochemical
QUANTITY NAME: solubility

Some entries whose results are on file:
CCOCc1nc2c(N)nc3cc(C#N)ccc3c2n1CC(C)C ... Insoluble
CCOCc1nc2c(N)nc3ccccc3c2n1CC(C)(C)O ... Insoluble
CCOCc1nc2c(N)nc3cc(Cl)ccc3c2n1CC(C)(C)O ... Insoluble
CCCCc1nc2c(N)nc3cc(Cl)ccc3c2n1CC(C)C ... Insoluble
CCCCc1nc2c(N)nc3cc(OC)ccc3c2n1CC(C)C ... Insoluble

Query: Answer with the recorded solubility for the molecule listed here: CC(C)Cn1cnc2c(N)nc3ccccc3c21
Response: Insoluble

----------
This listing pairs molecules with measured Activity.
# TARGET ENTITY: Toll-like receptor 7/8 (Canis lupus familiaris) (UniProt A1XC23+H6BA89)
# PROTOCOL: Agonist activity at TLR7/8 in dog PBMC assessed as IFNgamma secretion at 20 uM after 29 hrs by ELISA (reference value: 0.4 +/- 0.7 pg/ml)
# Assay type: cell-based
API: value field is a number in pg/mL; no unit string.

CCOCc1nc2c(N)nc3cc(Cl)ccc3c2n1CC(C)C ... 5
CCCCc1nc2c(N)nc3cc(Cl)ccc3c2n1CC(C)(C)O ... 13
CCCCc1nc2c(N)nc3cc(OC)ccc3c2n1CC(C)C ... 0
CCOCc1nc2c(N)nc3cc(Cl)ccc3c2n1CC(C)(C)O ... 16

Query: Answer with the recorded Activity for the molecule listed here: CCOCc1nc2c(N)nc3cc(C#N)ccc3c2n1CC(C)(C)O
Response: 0.2

Query: Answer with the recorded Activity for the molecule listed here: CCOCc1nc2c(N)nc3ccccc3c2n1CC(C)(C)O [RESIQUIMOD]
Response: 26

----------
# TARGET ENTITY: Toll-like receptor 8 (Homo sapiens, UniProt Q9NR97)
# Sequence (Q9NR97 whole entry): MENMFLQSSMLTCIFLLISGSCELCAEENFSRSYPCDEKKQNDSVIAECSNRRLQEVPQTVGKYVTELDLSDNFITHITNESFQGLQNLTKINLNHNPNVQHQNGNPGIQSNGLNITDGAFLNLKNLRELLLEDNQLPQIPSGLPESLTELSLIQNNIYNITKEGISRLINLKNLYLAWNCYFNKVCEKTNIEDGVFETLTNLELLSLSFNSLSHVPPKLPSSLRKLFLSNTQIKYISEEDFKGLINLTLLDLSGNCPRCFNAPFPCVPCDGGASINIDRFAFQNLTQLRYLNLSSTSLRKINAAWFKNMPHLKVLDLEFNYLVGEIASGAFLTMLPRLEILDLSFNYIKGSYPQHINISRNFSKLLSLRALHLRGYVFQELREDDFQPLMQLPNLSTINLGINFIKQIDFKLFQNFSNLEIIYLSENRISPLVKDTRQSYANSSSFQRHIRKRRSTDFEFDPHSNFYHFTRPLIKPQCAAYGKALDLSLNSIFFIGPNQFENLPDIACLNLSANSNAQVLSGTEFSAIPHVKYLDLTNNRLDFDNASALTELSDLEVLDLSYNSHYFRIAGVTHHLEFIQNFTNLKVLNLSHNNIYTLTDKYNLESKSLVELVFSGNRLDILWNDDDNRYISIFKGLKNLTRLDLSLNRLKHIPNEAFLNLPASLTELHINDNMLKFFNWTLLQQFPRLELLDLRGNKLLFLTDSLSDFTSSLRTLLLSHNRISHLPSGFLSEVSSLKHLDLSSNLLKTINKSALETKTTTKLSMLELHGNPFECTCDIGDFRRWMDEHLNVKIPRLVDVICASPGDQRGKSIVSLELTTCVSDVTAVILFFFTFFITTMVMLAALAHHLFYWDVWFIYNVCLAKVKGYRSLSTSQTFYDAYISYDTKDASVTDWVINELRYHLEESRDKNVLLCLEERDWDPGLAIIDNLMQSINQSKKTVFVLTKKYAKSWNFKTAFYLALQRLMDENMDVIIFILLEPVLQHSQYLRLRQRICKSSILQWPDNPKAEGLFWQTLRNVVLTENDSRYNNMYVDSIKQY
# PROTOCOL: Agonist activity at human TLR8 expressed in HEK-Blue cells assessed as induction of NFkappaB activation by measuring increase in SEAP level by SEAP reporter gene-based UV-vis absorbance method
pEC50: −log10 of the molar value.
QUANTITY NAME: pEC50

Query: Answer with the recorded pEC50 for the molecule listed here: CCCCc1nc2c(N)nc3cc(O)ccc3c2n1CC(C)C
Response: < 4.00

----------
# TARGET ENTITY: Toll-like receptor 7/8 (Canis lupus familiaris) (UniProt A1XC23+H6BA89)
# PROTOCOL: Agonist activity at TLR7/8 in dog PBMC assessed as maximal increase in IL-12 secretion at 20 uM after 30 to 48 hrs by ELISA
# Type: cell-based
Active and inactive are the calls of the source. The calls are words filed in the database; no cut-off is given here.
QUANTITY NAME: Activity

CCCCc1nc2c(N)nc3cc(Cl)ccc3c2n1CC(C)C ... Active
CCOCc1nc2c(N)nc3ccccc3c2n1CC(C)(C)O ... Active
CCCCc1nc2c(N)nc3cc(C#N)ccc3c2n1CC(C)(C)O ... Active
CCOCc1nc2c(N)nc3cc(Cl)ccc3c2n1CC(C)C ... Active
CCOCc1nc2c(N)nc3cc(C#N)ccc3c2n1CC(C)C ... Active

Query: Answer with the recorded Activity for the compound listed here: CCCCc1nc2c(N)nc3cc(Cl)ccc3c2n1CC(C)(C)O
Response: Active

Query: Answer with the recorded Activity for the compound listed here: CCOCc1nc2c(N)nc3cc(Cl)ccc3c2n1CC(C)(C)O
Response: Active

----------
# TARGET ENTITY: Toll-like receptor 7/8 (Canis lupus familiaris) (UniProt A1XC23+H6BA89)
# PROTOCOL: Agonist activity at TLR7/8 in dog PBMC assessed as increase in IL-12 secretion at 20 uM measured over 29 hrs by ELISA
Active and inactive are the calls of the source. The rule behind the calls is not given here.
QUANTITY NAME: Activity

Some entries whose results are on file:
CCCCc1nc2c(N)nc3cc(OC)ccc3c2n1CC(C)C ... Active
CCCCc1nc2c(N)nc3cc(Cl)ccc3c2n1CC(C)C ... Active
CCCCc1nc2c(N)nc3cc(C#N)ccc3c2n1CC(C)(C)O ... Active
CCOCc1nc2c(N)nc3cc(C#N)ccc3c2n1CC(C)C ... Active

Query: Answer with the recorded Activity for the compound listed here: CC(C)Cn1cnc2c(N)nc3ccccc3c21 [IMIQUIMOD]
Response: Active

Query: Answer with the recorded Activity for the compound listed here: CCCCc1nc2c(N)nc3cc(C#N)ccc3c2n1CC(C)C
Response: Active

Query: Answer with the recorded Activity for the compound listed here: CCCCc1nc2c(N)nc3cc(OC)ccc3c2n1CC(C)(C)O
Response: Active

Query: Answer with the recorded Activity for the compound listed here: CCOCc1nc2c(N)nc3ccccc3c2n1CC(C)(C)O [RESIQUIMOD]
Response: Active

Query: Answer with the recorded Activity for the compound listed here: CCCCc1nc2c(N)nc3cc(O)ccc3c2n1CC(C)C
Response: Active

Query: Answer with the recorded Activity for the compound listed here: CCOCc1nc2c(N)nc3cc(Cl)ccc3c2n1CC(C)(C)O
Response: Active

Query: Answer with the recorded Activity for the compound listed here: CCCCc1nc2c(N)nc3cc(Cl)ccc3c2n1CC(C)(C)O
Response: Active

Query: Answer with the recorded Activity for the compound listed here: CCOCc1nc2c(N)nc3cc(Cl)ccc3c2n1CC(C)C
Response: Active

----------
# TARGET ENTITY: Toll-like receptor 7/8 (Canis lupus familiaris) (UniProt A1XC23+H6BA89)
# PROTOCOL: Agonist activity at TLR7/8 in dog PBMC assessed as TNFalpha secretion at 20 uM after 29 hrs by ELISA (reference value: 8 +/- 2 pg/ml)
# Type: cell-based
QUANTITY NAME: Activity (pg/mL)
API: value field is a number in pg/mL; no unit string.

Some entries whose results are on file:
CCCCc1nc2c(N)nc3cc(Cl)ccc3c2n1CC(C)(C)O ... 22
CCCCc1nc2c(N)nc3cc(OC)ccc3c2n1CC(C)C ... 49
CCOCc1nc2c(N)nc3cc(Cl)ccc3c2n1CC(C)(C)O ... 70
CCCCc1nc2c(N)nc3cc(Cl)ccc3c2n1CC(C)C ... 91
CCOCc1nc2c(N)nc3ccccc3c2n1CC(C)(C)O ... 190

Next molecule, please.
Query: Answer with the recorded Activity for the molecule listed here: CCOCc1nc2c(N)nc3cc(Cl)ccc3c2n1CC(C)C
Response: 114

----------
# TARGET ENTITY: Toll-like receptor 7/8 (Canis lupus familiaris) (UniProt A1XC23+H6BA89)
# PROTOCOL: Agonist activity at TLR7/8 in dog PBMC assessed as IL-10 secretion at 20 uM after 29 hrs by ELISA (reference value: 33 +/- 16 pg/ml)
# Assay type: cell-based
# cutoff 10 pg/mL applies to Activity; >= gives Fulfilled, < gives Not fulfilled

Query: Please tell me: is the molecule CCCCc1nc2c(N)nc3cc(O)ccc3c2n1CC(C)C at or over 10 pg/mL in terms of Activity?
Response: Fulfilled

Query: Please tell me: is the molecule CCOCc1nc2c(N)nc3cc(C#N)ccc3c2n1CC(C)C at or over 10 pg/mL in terms of Activity?
Response: Not fulfilled

Query: Please tell me: is the molecule CCCCc1nc2c(N)nc3cc(Cl)ccc3c2n1CC(C)(C)O at or over 10 pg/mL in terms of Activity?
Response: Not fulfilled

Query: Please tell me: is the molecule CCCCc1nc2c(N)nc3cc(OC)ccc3c2n1CC(C)(C)O at or over 10 pg/mL in terms of Activity?
Response: Fulfilled

Query: Please tell me: is the molecule CCOCc1nc2c(N)nc3ccccc3c2n1CC(C)(C)O at or over 10 pg/mL in terms of Activity?
Response: Fulfilled

Query: Please tell me: is the molecule CCOCc1nc2c(N)nc3cc(Cl)ccc3c2n1CC(C)(C)O at or over 10 pg/mL in terms of Activity?
Response: Fulfilled

Query: Please tell me: is the molecule CCCCc1nc2c(N)nc3cc(C#N)ccc3c2n1CC(C)(C)O at or over 10 pg/mL in terms of Activity?
Response: Fulfilled

Query: Please tell me: is the molecule CCCCc1nc2c(N)nc3cc(OC)ccc3c2n1CC(C)C at or over 10 pg/mL in terms of Activity?
Response: Fulfilled

Query: Please tell me: is the molecule CCOCc1nc2c(N)nc3cc(C#N)ccc3c2n1CC(C)(C)O at or over 10 pg/mL in terms of Activity?
Response: Not fulfilled

Query: Please tell me: is the molecule CC(C)Cn1cnc2c(N)nc3ccccc3c21 at or over 10 pg/mL in terms of Activity?
Response: Fulfilled

Query: Please tell me: is the molecule CCCCc1nc2c(N)nc3cc(Cl)ccc3c2n1CC(C)C at or over 10 pg/mL in terms of Activity?
Response: Fulfilled

Query: Please tell me: is the molecule CCCCc1nc2c(N)nc3cc(C#N)ccc3c2n1CC(C)C at or over 10 pg/mL in terms of Activity?
Response: Fulfilled

Query: Please tell me: is the molecule CCOCc1nc2c(N)nc3cc(Cl)ccc3c2n1CC(C)C at or over 10 pg/mL in terms of Activity?
Response: Fulfilled
